measured_on: T1, monomeric HLA-A2:NY-ESO-1(156-165) (V at position 165) peptide complex, 2906
T1 construct: also called soluble HLA-A2:NY-ESO-1 peptide complex
assay_summary: SPR, 25 C, antibody captured, monomeric complex injected;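 note: antibody held on sensor chip via immobilized anti-human or anti-mouse Fc antibody, rate constants derived by fitting sensorgrams to a 1:1 binding model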

binder	koff / s⁻¹
mAb28128P (antibody, human IgG4 S228P, kappa, V domains shown) VH: EVQLVESGGGVVQPGGSLRLSCAASGFIFDDYAMHWVRQVPGKGLEWISLSSGGGGGTYYADPVKGRFTISRDNSKNSLHLQMNSLRAEDTASYYCAKDMVFGVVTPDFFFAMDVWGQGTTVTVSS VL: DIQMTQSPSSLSASVGDRVTITCRASQSISTYLNWYQQKPGKAPKLLIYGASSLQRGVPSRFSGSGSGTDFTLTISSLQPEDFATYYCQQTYSTPPITFGQGTRLEIKR	0.000185
